These data points were gathered from patent US7622469B2.

Test system: MRSA KM 97-108
Assay: Bactericidal activity test (MBC, phenol coefficient measuring method)
Format: cell-based, methicillin-resistant Staphylococcus aureus
Conditions: 1 min
Excerpt: As a test bacterium, the same bacteria species as those of the antibacterial activity test were used; as a medium to be used, a SCD medium (manufactured by Eiken Chemical Co., Ltd.) was used for pre-culture medium; and a heart infusion bouillon medium (manufactured by Eiken Chemical Co., Ltd.) was used as a medium for growing a live bacterium in a test solution after bactericidal treatment. […]
Listing: minimal bactericidal concentration (MBC) of selected compounds

COMPOUND	minimal bactericidal concentration (MBC), µg/mL
CC(=O)O.CCCCCCCCNC1=NC(C)(C)N=C(NCc2ccc(C)cc2)N1 [compound 58]	50
CC(=O)O.CCCCCCCCNC1=NC(C)(C)N=C(NCCCCCC)N1 [compound 68]	50
N=C(NCCCCCCNC(=N)NC(=N)Nc1ccc(Cl)cc1)NC(=N)Nc1ccc(Cl)cc1.O=C(O)[C@H](O)[C@@H](O)[C@H](O)[C@H](O)CO.O=C(O)[C@H](O)[C@@H](O)[C@H](O)[C@H](O)CO [Control drug, chlorhexidine gluconate, reference compound]	500
CC(=O)O.CCCCCCCCCNC1=NC(C)(C)N=C(NCc2ccccc2)N1 [compound 48]	50

====

test system: MRSA 97-115; test: Bactericidal activity test (MBC, phenol coefficient measuring method); format: cell-based, methicillin-resistant Staphylococcus aureus; details: 3 min

COMPOUND	READING_UNIT	minimal bactericidal concentration (MBC)
CCCCCCCCCCCCCCNC1=NC(C)(C)N=C(N)N1.Cl [compound 72]	µg/mL	12.5
CC(=O)O.CCCCCCCCNC1=NC(C)(C)N=C(NCCCCCC)N1 [compound 68]	µg/mL	6.3
CCCCCCCCCC1N=C(N)N=C(N)N1c1ccc(C(C)(C)C)cc1.Cl (stereo not drawn) [compound 22]	µg/mL	25
CCCCCCCCNC1=NC(C)(C)N=C(NCc2ccc(C)cc2)N1 [compound 37]	µg/mL	25
CCCCCCCCCCCC1N=C(N)NC(NCc2ccccc2)=N1.Cl (racemic) [43(1)]	µg/mL	25
CC(=O)O.CCCCCCCCNC1=NC(C)(C)N=C(NCc2ccc(C)cc2)N1 [compound 58]	µg/mL	25
CC(=O)O.CCCCCCCCCNC1=NC(C)(C)N=C(NCCc2ccccc2)N1 [compound 56]	µg/mL	12.5
N=C(NCCCCCCNC(=N)NC(=N)Nc1ccc(Cl)cc1)NC(=N)Nc1ccc(Cl)cc1.O=C(O)[C@H](O)[C@@H](O)[C@H](O)[C@H](O)CO.O=C(O)[C@H](O)[C@@H](O)[C@H](O)[C@H](O)CO [Control drug, chlorhexidine gluconate, reference compound]	µg/mL	250
CC(=O)O.CCCCCCCCNC1=NC(C)(C)N=C(NCC2CCCCC2)N1 [compound 65]	µg/mL	12.5
CC(=O)O.CCCCCCCCNC1=NC(C)(C)N=C(Nc2cnc3ccccc3c2)N1 [compound 82]	µg/mL	25
CCCCCCCCCCC1N=C(N)N=C(N)N1c1ccc(F)c(F)c1F.Cl (stereo not drawn) [compound 31]	µg/mL	12.5
CC(=O)O.CCCCCCCCCNC1=NC(C)(C)N=C(NCc2ccccc2)N1 [compound 48]	µg/mL	6.3
Br.CCCCCCCCCNC1=NC(C)(C)N=C(NCc2ccccc2)N1 [compound 49]	µg/mL	12.5
CCCCCCCCCCNC1=NC(C)(C)N=C(NCCc2ccc(OC)cc2)N1.Cl [compound 4]	µg/mL	6.3
CCCCCCCCCCNC1=NC(C)(C)N=C(NCc2ccc(OC)cc2)N1.CS(=O)(=O)O [38(2)]	µg/mL	12.5
CC(=O)O.CCCCCCCNC1=NC(C)(C)N=C(NCCCCCCC)N1 [compound 69]	µg/mL	25
CCCCCCCCCCNC1=NC(C)(C)N=C(NCc2ccccc2)N1.CS(=O)(=O)O [compound 2]	µg/mL	12.5
CCCCCCCCCCCCC1N=C(N)NC(NCCc2ccc(OC)cc2)=N1.Cl (racemic) [15(1)]	µg/mL	12.5
